target_entity: mineralcorticoid receptor (Homo sapiens)
Sequence (P08235 whole entry): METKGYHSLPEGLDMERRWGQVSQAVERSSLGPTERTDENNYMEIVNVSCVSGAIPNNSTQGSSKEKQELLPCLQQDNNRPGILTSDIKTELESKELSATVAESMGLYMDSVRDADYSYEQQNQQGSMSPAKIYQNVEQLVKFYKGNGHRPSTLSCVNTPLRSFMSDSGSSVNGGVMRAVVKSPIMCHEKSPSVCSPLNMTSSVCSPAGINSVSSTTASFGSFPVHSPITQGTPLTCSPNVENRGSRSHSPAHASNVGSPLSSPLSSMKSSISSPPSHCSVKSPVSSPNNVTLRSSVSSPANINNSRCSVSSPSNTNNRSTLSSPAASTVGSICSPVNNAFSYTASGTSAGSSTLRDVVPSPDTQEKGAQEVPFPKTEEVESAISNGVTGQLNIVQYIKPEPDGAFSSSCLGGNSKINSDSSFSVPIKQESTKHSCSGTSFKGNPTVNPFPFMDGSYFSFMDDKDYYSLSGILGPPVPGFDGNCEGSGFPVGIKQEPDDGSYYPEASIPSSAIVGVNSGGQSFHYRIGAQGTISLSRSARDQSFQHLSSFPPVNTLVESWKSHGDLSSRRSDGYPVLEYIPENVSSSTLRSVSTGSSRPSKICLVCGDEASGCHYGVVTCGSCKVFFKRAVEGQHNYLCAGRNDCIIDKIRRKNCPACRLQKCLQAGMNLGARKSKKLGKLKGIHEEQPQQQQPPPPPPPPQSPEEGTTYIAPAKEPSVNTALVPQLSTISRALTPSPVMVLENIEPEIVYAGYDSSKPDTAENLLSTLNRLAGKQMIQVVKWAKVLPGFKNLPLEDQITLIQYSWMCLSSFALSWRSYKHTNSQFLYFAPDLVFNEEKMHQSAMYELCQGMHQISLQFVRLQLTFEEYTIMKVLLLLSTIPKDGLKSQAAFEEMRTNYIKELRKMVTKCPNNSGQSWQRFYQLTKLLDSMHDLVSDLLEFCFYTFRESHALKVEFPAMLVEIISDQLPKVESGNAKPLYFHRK
procedure_text: MR antagonism, luciferase reporter cell line assay
Assay type: cell-based
conditions_used: reporter cell lines, 16 hours incubation, luminescence; read-out: MR Antagonism IC50
Mark Yes only for IC50 values smaller than 20 nM; exact matches and larger values are No.

# smiles_notation, label
measured = [
    ("CC[C@]1(C#N)[C@H]2C[C@H]2[C@H]2[C@@H]3CCC4=CC(=O)CC[C@@H]4[C@H]3CC[C@@]21C", "No"),
    ("C[C@]1(C#N)[C@H]2C[C@H]2[C@H]2[C@@H]3CCC4=CC(=O)CC[C@@H]4[C@H]3CC[C@@]21C", "No"),
    ("C[C@]12CC[C@H]3[C@@H](C=CC4=CC(=O)CC[C@@H]43)[C@@H]1[C@@H]1C[C@@H]1[C@@H]2C#N", "Yes"),
    ("C[C@]12CC[C@H]3[C@@H](CCC4=CC(=O)CC[C@@H]43)[C@@H]1[C@H]1C[C@H]1[C@@H]2C#N", "Yes"),
    ("C[C@]1(C#N)[C@H]2C[C@H]2[C@H]2[C@@H]3C=CC4=CC(=O)CC[C@@H]4[C@H]3CC[C@@]21C", "No"),
    ("C[C@]12CC[C@H]3[C@@H](CCC4=CC(=O)CC[C@@H]43)[C@@H]1[C@@H]1C[C@@H]1[C@@H]2C#N", "Yes"),
    ("C[C@@H]1CC2=CC(=O)CC[C@@H]2[C@H]2CC[C@]3(C)[C@@H](C#N)CC[C@H]3[C@@H]21", "Yes"),
]

====

target_entity: mineralcorticoid receptor (Homo sapiens)
procedure_text: MR antagonism, luciferase reporter cell line assay
Format: cell-based
conditions_used: reporter cell lines, 16 hours incubation, luminescence
// reported MR Antagonism activity [% of the maximum effect] for each item listed
measure: MR Antagonism activity [% of the maximum effect]

# smiles_notation, data_value
records = [
    ("CC[C@]1(C#N)[C@H]2C[C@H]2[C@H]2[C@@H]3CCC4=CC(=O)CC[C@@H]4[C@H]3CC[C@@]21C", "106.4 % of the maximum effect"),
    ("C[C@]1(C#N)[C@H]2C[C@H]2[C@H]2[C@@H]3C=CC4=CC(=O)CC[C@@H]4[C@H]3CC[C@@]21C", "114 % of the maximum effect"),
    ("C[C@]12CC[C@H]3[C@@H](CCC4=CC(=O)CC[C@@H]43)[C@@H]1[C@@H]1C[C@@H]1[C@@H]2C#N", "95.57 % of the maximum effect"),
]

====

// reported PR in vivo ED50 for each item listed
target_entity: PR (Rattus norvegicus)
Construct: The maintenance of pregnancy test on ovarectomized rats serves for the determination of the peripheral gestagenic activity of a compound; from tissue; host or cells: whole animal: pregnant, ovariectomized rats
Sequence (Q63449 whole entry): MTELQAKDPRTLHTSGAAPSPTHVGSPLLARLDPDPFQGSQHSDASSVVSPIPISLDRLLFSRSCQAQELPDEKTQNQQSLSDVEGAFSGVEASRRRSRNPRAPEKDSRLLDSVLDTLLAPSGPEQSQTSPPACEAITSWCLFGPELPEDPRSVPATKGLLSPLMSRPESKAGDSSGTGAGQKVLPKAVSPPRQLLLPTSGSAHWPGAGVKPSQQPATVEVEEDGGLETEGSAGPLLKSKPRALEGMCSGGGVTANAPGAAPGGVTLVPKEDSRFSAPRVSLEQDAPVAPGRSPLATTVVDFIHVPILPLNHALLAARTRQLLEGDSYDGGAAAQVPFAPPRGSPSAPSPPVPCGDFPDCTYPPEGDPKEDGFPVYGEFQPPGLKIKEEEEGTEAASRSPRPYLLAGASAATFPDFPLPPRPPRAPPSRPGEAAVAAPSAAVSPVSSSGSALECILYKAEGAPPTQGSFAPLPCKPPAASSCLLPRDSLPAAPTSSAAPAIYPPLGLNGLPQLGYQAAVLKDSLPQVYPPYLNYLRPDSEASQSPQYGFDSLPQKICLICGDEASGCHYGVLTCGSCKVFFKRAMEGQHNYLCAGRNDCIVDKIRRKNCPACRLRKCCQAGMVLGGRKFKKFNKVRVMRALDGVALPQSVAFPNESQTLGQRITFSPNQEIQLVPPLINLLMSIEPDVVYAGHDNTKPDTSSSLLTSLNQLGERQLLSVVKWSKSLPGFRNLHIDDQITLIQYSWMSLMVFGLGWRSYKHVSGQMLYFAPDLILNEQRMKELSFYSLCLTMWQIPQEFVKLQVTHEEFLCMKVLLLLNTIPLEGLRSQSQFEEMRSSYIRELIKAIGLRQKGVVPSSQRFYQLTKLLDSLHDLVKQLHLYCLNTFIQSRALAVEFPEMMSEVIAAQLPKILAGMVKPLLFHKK
procedure_text: maintenance of pregnancy test on the rat
Type: in vivo
conditions_used: pregnancy-maintaining dose, ovarectomized pregnant rats, s.c. once daily with oestrone 5 μg/kg/day

# molecule, units_label, PR in vivo ED50
records = [
    ("C[C@]12CC[C@H]3[C@@H](CCC4=CC(=O)CC[C@@H]43)[C@@H]1[C@@H]1C[C@@H]1[C@@H]2C#N", "mg/kg/d s.c.", 0.84),
    ("C[C@@H]1CC2=CC(=O)CC[C@@H]2[C@H]2CC[C@]3(C)[C@@H](C#N)CC[C@H]3[C@@H]21", "mg/kg/d s.c.", 0.33),
    ("CC[C@]1(C#N)[C@H]2C[C@H]2[C@H]2[C@@H]3CCC4=CC(=O)CC[C@@H]4[C@H]3CC[C@@]21C", "mg/kg/d s.c.", 1.9),
    ("CC[C@]1(C#N)[C@H]2C[C@H]2[C@H]2[C@@H]3[C@@H]4C[C@@H]4C4=CC(=O)CC[C@@H]4[C@H]3CC[C@@]21C (single isomer, unassigned)", "mg/kg/d s.c.", 0.22),
    ("C[C@]1(C#N)[C@H]2C[C@H]2[C@H]2[C@@H]3CCC4=CC(=O)CC[C@@H]4[C@H]3CC[C@@]21C", "mg/kg/d s.c.", 0.8),
    ("C[C@]12CC[C@H]3[C@@H](C=CC4=CC(=O)CC[C@@H]43)[C@@H]1[C@@H]1C[C@@H]1[C@@H]2C#N", "mg/kg/d s.c.", 3.3),
    ("C[C@]12CC[C@H]3[C@@H](CCC4=CC(=O)CC[C@@H]43)[C@@H]1[C@H]1C[C@H]1[C@@H]2C#N", "mg/kg/d s.c.", 0.8),
    ("C[C@]1(C#N)[C@H]2C[C@H]2[C@H]2[C@@H]3C=CC4=CC(=O)CC[C@@H]4[C@H]3CC[C@@]21C", "mg/kg/d s.c.", 2.1),
]
